# Tested on: crabgrass, Brazil (Brazilian crabgrass, Digitaria horizontalis)
# run description: Test F pre-/postemergence: crabgrass, Brazil
# Type: in vivo
# experimental setup: Postemergence; 31 g ai/ha; scale 0 to 100
Entries and their measured Plant response rating, Crabgrass, Brazil follow.
Hey, just send me the number, nothing else.

Reference set, count: 3
Which Plant response rating, Crabgrass, Brazil is reported for this molecule? Cc1nn(-c2ccnc(Cl)c2)nc1Cc1ccnc(C(F)(F)F)c1 [Compound 141]
95

Could you do the same for CCc1nn(-c2ccc(C(F)(F)F)cc2)nc1Oc1ccnc(C(F)(F)F)c1 [Compound 169] , please?
20

How about CCOc1nn(-c2ccc(F)cc2)nc1Cc1ccnc(C(F)(F)F)c1 [Compound 196] ?
85

Now look at this one.
State the recorded Plant response rating, Crabgrass, Brazil for this entry: CCCc1nn(-c2ccc(F)c(F)c2)nc1Oc1ccnc(C(F)(F)F)c1 [Compound 172]
50

----------
# Plant response rating, Wheat values compiled below
# System: winter wheat (Triticum aestivum)
# run description: Test C pre-/postemergence: winter wheat
# Format: in vivo
# experimental setup: Postemergence, 62 g ai/ha; scale 0 to 100 (0 no effect, 100 complete control)
The answer should be written as a number, with no unit following it.

Example entries and their recorded answers appear below.
# lookup: Plant response rating, Wheat of Fc1ccc(-n2nc(Cc3ccnc(C(F)(F)F)c3)c(OC(F)F)n2)cc1 [Compound 25]
20

CCc1nn(-c2ccc(F)c(F)c2)nc1Oc1ccnc(C(F)(F)F)c1 [Compound 171] ?
10

Let us now turn to CCCc1nn(-c2ccc(F)c(F)c2)nc1Oc1ccnc(C(F)(F)F)c1 [Compound 172]
20

Lookup Cc1nn(-c2ccc(F)c(C(F)(F)F)c2)nc1Cc1ccnc(C(F)(F)F)c1 [Compound 156]
15

---
Quick one: Plant response rating, Wheat for CCCc1nn(-c2ccc(F)cc2F)nc1Oc1ccnc(C(F)(F)F)c1 [Compound 179] ?
10

Would you kindly repeat that for Cc1nn(-c2ccc(C(F)(F)F)cn2)nc1Oc1ccnc(C(F)(F)F)c1 [Compound 23] ?
10

----------
# System: morningglory (Ipomoea coccinea)
# run description: Test C pre-/postemergence: morningglory
# Type: in vivo
# experimental setup: Postemergence, 250 g ai/ha; scale 0 to 100 (0 no effect, 100 complete control)
endpoint name: Plant response rating, Morningglory
The answer should be written as a number, with no unit following it.

Field: example entries. Status: answers known.
Would you kindly share the measured Plant response rating, Morningglory for CCCc1nn(-c2ccc(F)cc2F)nc1Oc1ccnc(C(F)(F)F)c1 [Compound 179] ?
90

Try this compound next: CCCc1nn(-c2ccc(F)c(F)c2)nc1Oc1ccnc(C(F)(F)F)c1 [Compound 172]
80

---
Look up Plant response rating, Morningglory: CCc1nn(-c2ccc(C(F)(F)F)cc2)nc1Oc1ccnc(C(F)(F)F)c1 [Compound 169]
100

Similarly, CCCc1nn(-c2ccc(F)cc2)nc1Oc1ccnc(C(F)(F)F)c1 [Compound 168] ?
90

Cool, now CCOc1nn(-c2ccc(F)cc2)nc1Cc1ccnc(C(F)(F)F)c1 [Compound 196]
75

----------
# System: crabgrass, large (large crabgrass, Digitaria sanguinalis)
# run description: Test A pre-/postemergence: crabgrass, large
# Format: in vivo
# experimental setup: Preemergence, 125 g ai/ha; 0 to 100 scale where 0 is no effect and 100 is complete control
endpoint name: Plant response rating, Crabgrass, Large

Enter reported Plant response rating, Crabgrass, Large observed with crabgrass, large (large crabgrass, Digitaria sanguinalis) for Cc1nn(-c2ccc(F)cc2)nc1Oc1cc(C(F)(F)F)nn1C [Compound 126]
100

How about this compound: Cc1nn(-c2ccc(F)cc2)nc1Cc1cccc(C(F)(F)F)c1 [Compound 157]
20

Likewise for CON=C(c1cccc(C(F)(F)F)c1)c1nn(-c2ccnc(C(F)(F)F)c2)nc1C [Compound 140] ?
20

Quick one: CCOc1nn(-c2ccc(F)cc2F)nc1Cc1ccnc(C(F)(F)F)c1 [Compound 190]
100

And the next one, CCc1nn(-c2ccc(F)c(F)c2)nc1Oc1ccnc(C(F)(F)F)c1 [Compound 171] ?
100

Again, but for Cc1nn(-c2ccnc(Cl)c2)nc1Cc1ccnc(C(F)(F)F)c1 [Compound 141]
100

Now try CCCc1nn(-c2ccc(F)c(F)c2)nc1Oc1ccnc(C(F)(F)F)c1 [Compound 172] .
100

Consider next the compound CCCCc1nn(-c2ccc(C(F)(F)F)cc2)nc1Oc1ccnc(C(F)(F)F)c1 [Compound 184] in the same way.
70

Again, but for CC(C)COc1nn(-c2ccc(C(F)(F)F)cc2)nc1Cc1ccnc(C(F)(F)F)c1 [Compound 193]
0

Can you handle COc1nn(-c2ccc(C(F)(F)F)cc2)nc1Cc1ccnc(C(F)F)c1 [Compound 138] next?
90

Others:
// lookup Plant response rating, Crabgrass, Large | system=crabgrass, large (large crabgrass, Digitaria sanguinalis) | key= CCc1nn(-c2ccc(F)cc2)nc1Cc1ccnc(C(F)(F)F)c1 [Compound 154]
100

Also Cc1nn(-c2ccc(F)cc2)nc1Oc1cccc(C(F)(F)F)n1 [Compound 127] , if possible.
10

----------
# Tested on: winter wheat (Triticum aestivum)
# run description: Test C pre-/postemergence: winter wheat
# Format: in vivo
# experimental setup: Preemergence, 62 g ai/ha; scale of 0 to 100, 0 is no effect, 100 is complete control
endpoint name: Plant response rating, Wheat

Below, each entry is followed by its recorded Plant response rating, Wheat result.
What does the data say about its Plant response rating, Wheat? Entry: CCc1nn(-c2ccc(C(F)(F)F)cc2)nc1Cc1ccnc(C(F)(F)F)c1
5

Now this one: Fc1ccc(-n2nc(Cc3ccnc(C(F)(F)F)c3)c(OC(F)F)n2)cc1
5

Check CCCc1nn(-c2ccc(F)c(F)c2)nc1Oc1ccnc(C(F)(F)F)c1 too.
40

Read the next record carefully.
Would you mind telling me what Plant response rating, Wheat value was observed for Cc1nn(-c2ccc(F)c(C(F)(F)F)c2)nc1Cc1ccnc(C(F)(F)F)c1 ?
5

----------
# Test system: rice (Oryza sativa)
# run description: Test C flooded paddy test: rice
# Assay type: in vivo
# experimental setup: Flood (flooded paddy test), 62 g ai/ha; visual rating after 13 to 15 days, scale 0 to 100 (0 no effect, 100 complete control)
A collection of compounds and their measured Plant response rating, Rice
The response must contain the number and no unit.

Use the examples below as a reference point.
Requested read-out: Plant response rating, Rice. Entry: COc1cc(Cc2nn(-c3ccc(C(F)(F)F)cc3)nc2C)ccn1
0

Field entry: Cc1nn(-c2ccc(C(F)(F)F)cc2)nc1Oc1ccnc(OC(F)F)c1
10

What about COc1nn(-c2ccc(C(F)(F)F)cc2)nc1Cn1cnc(C(F)(F)F)n1 ?
0

Here is the next item to consider.
Which Plant response rating, Rice is reported for this compound? Cc1nn(-c2ccc(F)cc2)nc1Cn1c(Cl)nc(C(F)(F)F)c1Cl
0

----------
# System: foxtail, giant (giant foxtail, Setaria faberii)
# run description: Test C pre-/postemergence: foxtail, giant
# Type: in vivo
# experimental setup: Postemergence, 125 g ai/ha; scale 0 to 100, 0 no effect, 100 complete control
endpoint name: Plant response rating, Foxtail, Giant
Answer with a number only.

Identify the measured Plant response rating, Foxtail, Giant of CCc1nn(-c2ccc(C(F)(F)F)cc2)nc1Oc1ccnc(C(F)(F)F)c1 for foxtail, giant (giant foxtail, Setaria faberii).
65

What do you have for FC(F)(F)c1ccc(-n2nc(Cl)c(Cc3ccnc(C(F)(F)F)c3)n2)cc1 ?
35

Queued: COc1nn(-c2ccc(C(F)(F)F)cc2)nc1Cc1ccnc(C(F)(F)F)c1
75

----------
# System: lambsquarters (Chenopodium album)
# run description: Test C pre-/postemergence: lambsquarters
# Assay type: in vivo
# experimental setup: Postemergence, 62 g ai/ha; scale 0 to 100 (0 no effect, 100 complete control)
endpoint name: Plant response rating, Lambsquarters

Using the record for CCCc1nn(-c2ccc(F)c(F)c2)nc1Oc1ccnc(C(F)(F)F)c1 , report its Plant response rating, Lambsquarters.
98

Similarly, Cc1nn(-c2ccc(C(F)(F)F)cc2)nc1Oc1ccnc(C(F)(F)F)c1 ?
100

Okay, and FC(F)(F)COc1nn(-c2ccc(C(F)(F)F)cc2)nc1Cc1ccnc(C(F)(F)F)c1 ?
100

Further cases:
Suppose we examine the compound Cc1nn(-c2ccc(C(F)(F)F)cn2)nc1Cc1cccc(C(F)(F)F)c1 ; what Plant response rating, Lambsquarters value has been reported?
100

Likewise for Cc1nn(-c2ccc(C(F)(F)F)c(F)c2)nc1Oc1ccnc(C(F)(F)F)c1 ?
98

Next record, please: FCc1nn(-c2ccc(F)cc2)nc1Oc1ccnc(C(F)(F)F)c1
95

Follow-up entry: CCCc1nn(-c2ccc(F)cc2F)nc1Oc1ccnc(C(F)(F)F)c1
80

Please give the result for COc1nn(-c2cccc(F)c2)nc1Cc1ccnc(C(F)(F)F)c1 too.
95
